Read-out: Tissue plasminogen activator (tPA), PLAT (gene 5327)
Assay remarks: BSK_BE3C_tPA: BioMAP Diversity Plus: BE3C Assay for Tissue plasminogen activator (tPA) Biomarker Activity (AID 2283041);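 further: tPA level quantified by ELISA one day after compound addition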
Run parameters: primary human bronchial epithelial cells; actives raise or lower the signal
Procedure: BSK_BE3C is a cell-based, multiplexed-readout assay that uses bronchial epithelial cell, a human lung primary cell, with measurements taken at 24 hours after chemical dosing in a 96-well plate.BSK_BE3C_tPA is an assay component measured in the BSK_BE3C assay. It measures tPA antibody related to regulation of gene expression using ELISA technology.Data from the assay component BSK_BE3C_tPA was analyzed into 1 assay endpoint. […]
The source made the active and inactive calls. How the source made its calls: active means hit-call score of the fitted dose curve at least 0.9, where 1 is the maximum; inactive means score below 0.9.
Experimental endpoint: outcome

{"Compound": "O=P(O)(O)CCCl", "outcome": "inactive"}
{"Compound": "CCN(CC)C(=O)C(C)Oc1cccc2ccccc12 (stereo unspecified)", "outcome": "inactive"}
{"Compound": "COc1cc(OC)nc(NC(=O)NS(=O)(=O)c2ncccc2OCC(F)(F)F)n1", "outcome": "inactive"}
{"Compound": "CC(C)=CC1C(C(=O)OCc2coc(Cc3ccccc3)c2)C1(C)C (stereo unspecified)", "outcome": "inactive"}
{"Compound": "COCc1cnc(C2=NC(C)(C(C)C)C(=O)N2)c(C(=O)O)c1 (stereo unspecified)", "outcome": "inactive"}

Now, please, on to the next compound.
Look up outcome: `CC(C)Nc1nc(Cl)nc(NC(C)C)n1`
inactive
